src = patent EP1100483B1

SYSTEM UNDER TEST: minerocorticoid receptor (MR) (Homo sapiens, UniProt P08235)
Construct: made in house; host or cells: SF21 insect cells (baculovirus)
Sequence (P08235 whole entry): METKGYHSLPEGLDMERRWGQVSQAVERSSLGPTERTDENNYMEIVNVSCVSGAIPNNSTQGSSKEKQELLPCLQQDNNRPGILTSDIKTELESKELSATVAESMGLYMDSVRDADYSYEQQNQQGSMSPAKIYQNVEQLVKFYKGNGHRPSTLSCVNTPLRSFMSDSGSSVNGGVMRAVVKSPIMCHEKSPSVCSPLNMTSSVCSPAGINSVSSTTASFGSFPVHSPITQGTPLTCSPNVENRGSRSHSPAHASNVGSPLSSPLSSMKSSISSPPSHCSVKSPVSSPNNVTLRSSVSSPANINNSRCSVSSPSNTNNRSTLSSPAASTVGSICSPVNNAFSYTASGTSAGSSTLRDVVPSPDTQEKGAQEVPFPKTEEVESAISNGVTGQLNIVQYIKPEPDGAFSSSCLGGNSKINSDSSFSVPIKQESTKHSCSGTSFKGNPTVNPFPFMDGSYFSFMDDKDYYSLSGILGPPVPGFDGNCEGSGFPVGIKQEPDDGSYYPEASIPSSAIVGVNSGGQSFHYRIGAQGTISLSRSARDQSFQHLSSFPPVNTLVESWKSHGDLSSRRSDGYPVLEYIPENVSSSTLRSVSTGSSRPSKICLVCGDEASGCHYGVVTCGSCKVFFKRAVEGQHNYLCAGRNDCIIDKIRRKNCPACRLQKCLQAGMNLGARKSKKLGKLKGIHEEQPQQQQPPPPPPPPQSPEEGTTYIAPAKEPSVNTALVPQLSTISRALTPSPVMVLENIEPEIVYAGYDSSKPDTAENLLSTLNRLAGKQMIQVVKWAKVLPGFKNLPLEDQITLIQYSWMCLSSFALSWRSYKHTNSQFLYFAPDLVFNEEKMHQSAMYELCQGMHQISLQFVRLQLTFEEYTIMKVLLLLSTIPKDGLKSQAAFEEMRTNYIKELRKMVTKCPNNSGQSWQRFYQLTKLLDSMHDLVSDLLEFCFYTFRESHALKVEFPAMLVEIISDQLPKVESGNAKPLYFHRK
ASSAY REMARKS: soluble minerocorticoid receptor (MR) binding assay, [3H]-aldosterone competition
DETAILS: 3-4 nM [3H]-aldosterone, 4 °C for 18 hours; Cheng-Prusoff
Task for the reader: assign each of the following compounds its reported Ki.

I have this compound here, CNc1ccc(C(c2ccc(NC)cc2)c2cc(Cl)ccc2Cl)cc1 , and I need its recorded Ki.
> 10000 nM

Moving on to CC(=O)OCCN(C)c1ccc(C(c2ccc(N(C)C)cc2)c2cc([N+](=O)[O-])ccc2Cl)cc1 (stereo not drawn)
> 10000 nM

Now the compound CNc1ccc(C(c2ccc(NC)cc2)c2cc([N+](=O)[O-])ccc2Cl)cc1
> 10000 nM
